Tested on: Escherichia coli TOP10
Assay: shrunken log2 fold change of peptide-encoding DNA abundance (4.5 h post-induction vs induction); higher = less antimicrobial activity (less host growth inhibition)
Details: time post-induction: 4.5 h; library: site-saturation at positions 5, 18, 19, 20
# shrunken log2 fold change per record follows
Lab note: write the figure by itself, no unit.

# record.sequence, data.value
rows = [
    ("RRIRQRPPRLPRPRPRPMKLPRP", 0.00355),
    ("RRIRVRPPRLPRPRPRPTVTPRP", 0.167),
    ("RRIRERPPRLPRPRPRPITKPRP", -0.107),
    ("RRIRERPPRLPRPRPRPIIIPRP", -0.0562),
    ("RRIRKRPPRLPRPRPRPEAPPRP", 0.957),
]

Task item: Form: Entry = RRIRPRPPRLPRPRPRPSKDPRP | System = Escherichia coli TOP10 | shrunken log2 fold change = ____
Reply: -0.451

Task item: Form: Entry = RRIRNRPPRLPRPRPRPPWSPRP | System = Escherichia coli TOP10 | shrunken log2 fold change = ____
Reply: -0.294

Task item: Form: Entry = RRIRGRPPRLPRPRPRPSDDPRP | System = Escherichia coli TOP10 | shrunken log2 fold change = ____
Reply: 0.108

###

System: Escherichia coli TOP10;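 further: peptides expressed intracellularly from a pBAD plasmid library in pooled LB shake-flask culture, induced with 0.3% L-arabinose, DNA abundance read by NGS, three biological replicates, DESeq2 with apeglm shrinkage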
Experiment: shrunken log2 fold change of peptide-encoding DNA abundance (4.5 h post-induction vs induction); higher = less antimicrobial activity (less host growth inhibition)
Settings: time post-induction: 4.5 h; library: site-saturation at positions 5, 18, 19, 20
# shrunken log2 fold change per record follows
Lab note: write the figure by itself, no unit.

Examples with their reported shrunken log2 fold change follow.
# record.sequence, shrunken log2 fold change
measured = [
    ("RRIRPRPPRLPRPRPRPGPRPRP", 0.677),
    ("RRIRDRPPRLPRPRPRPCEEPRP", -0.187),
    ("RRIRFRPPRLPRPRPRPTDLPRP", 0.15),
    ("RRIRKRPPRLPRPRPRPQNHPRP", 2.37),
    ("RRIRIRPPRLPRPRPRPEDRPRP", -0.0106),
    ("RRIRFRPPRLPRPRPRPDYMPRP", -0.432),
    ("RRIRLRPPRLPRPRPRPWTIPRP", -0.0385),
    ("RRIRNRPPRLPRPRPRPKENPRP", -0.409),
    ("RRIRCRPPRLPRPRPRPLQMPRP", -0.182),
    ("RRIRSRPPRLPRPRPRPDSMPRP", -0.339),
]

Task item: Query: shrunken log2 fold change; subject: RRIRPRPPRLPRPRPRPKYKPRP
Reply: -0.39

Task item: Query: shrunken log2 fold change; subject: RRIRKRPPRLPRPRPRPVDFPRP
Reply: 0.103

Task item: Query: shrunken log2 fold change; subject: RRIRVRPPRLPRPRPRPVVWPRP
Reply: 0.385

Task item: Query: shrunken log2 fold change; subject: RRIRIRPPRLPRPRPRPRKLPRP
Reply: -0.529

Task item: Query: shrunken log2 fold change; subject: RRIRERPPRLPRPRPRPSVEPRP
Reply: -0.326

Task item: Query: shrunken log2 fold change; subject: RRIRFRPPRLPRPRPRPDWNPRP
Reply: -0.287

Source of measurements: the supplement of paper PMC9112550
